target of assay: Solute carrier organic anion transporter family member 1A1 (Rattus norvegicus)
Sequence (P46720 whole entry): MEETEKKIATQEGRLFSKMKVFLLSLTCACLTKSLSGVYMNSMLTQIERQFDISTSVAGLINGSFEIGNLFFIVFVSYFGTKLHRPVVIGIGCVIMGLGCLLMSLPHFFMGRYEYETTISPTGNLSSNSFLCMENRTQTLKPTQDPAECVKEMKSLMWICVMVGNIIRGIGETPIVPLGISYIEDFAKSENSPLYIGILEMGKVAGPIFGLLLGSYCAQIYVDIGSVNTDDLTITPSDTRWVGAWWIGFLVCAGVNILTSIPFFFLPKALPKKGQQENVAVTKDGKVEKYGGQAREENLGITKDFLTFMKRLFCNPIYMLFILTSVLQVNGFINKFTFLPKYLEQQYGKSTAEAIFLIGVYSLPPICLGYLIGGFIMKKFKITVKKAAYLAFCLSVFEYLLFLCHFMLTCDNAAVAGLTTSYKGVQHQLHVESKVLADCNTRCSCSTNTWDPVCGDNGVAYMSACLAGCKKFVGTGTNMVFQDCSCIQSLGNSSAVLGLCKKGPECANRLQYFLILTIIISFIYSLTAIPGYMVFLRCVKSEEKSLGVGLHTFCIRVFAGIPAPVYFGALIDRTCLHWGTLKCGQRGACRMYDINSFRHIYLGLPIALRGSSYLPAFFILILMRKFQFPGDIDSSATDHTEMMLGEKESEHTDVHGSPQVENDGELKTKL
test protocol: TP_TRANSPORTER: inhibition of Ouabain uptake (Ouabain: 100 uM, Prednisolone: 100 uM) in Xenopus laevis oocytes
Type: functional, cell-based, Oocyte
Parameters: scale not given: the % may be the effect or the level left
details: probe Ouabain (100 uM), read-out: Activity
measurement label: activity at 100 µM (%)

[[record]]
compound = "C[C@]12C=CC(=O)C=C1CC[C@@H]1[C@@H]2[C@@H](O)C[C@@]2(C)[C@H]1CC[C@]2(O)C(=O)CO [PREDNISOLONE]"
measurement_label = "activity at 100 µM"
unit_info = "%"
test_value = 40


###

target of assay: Solute carrier organic anion transporter family member 1A1 (Rattus norvegicus, UniProt P46720)
Sequence (P46720 whole entry): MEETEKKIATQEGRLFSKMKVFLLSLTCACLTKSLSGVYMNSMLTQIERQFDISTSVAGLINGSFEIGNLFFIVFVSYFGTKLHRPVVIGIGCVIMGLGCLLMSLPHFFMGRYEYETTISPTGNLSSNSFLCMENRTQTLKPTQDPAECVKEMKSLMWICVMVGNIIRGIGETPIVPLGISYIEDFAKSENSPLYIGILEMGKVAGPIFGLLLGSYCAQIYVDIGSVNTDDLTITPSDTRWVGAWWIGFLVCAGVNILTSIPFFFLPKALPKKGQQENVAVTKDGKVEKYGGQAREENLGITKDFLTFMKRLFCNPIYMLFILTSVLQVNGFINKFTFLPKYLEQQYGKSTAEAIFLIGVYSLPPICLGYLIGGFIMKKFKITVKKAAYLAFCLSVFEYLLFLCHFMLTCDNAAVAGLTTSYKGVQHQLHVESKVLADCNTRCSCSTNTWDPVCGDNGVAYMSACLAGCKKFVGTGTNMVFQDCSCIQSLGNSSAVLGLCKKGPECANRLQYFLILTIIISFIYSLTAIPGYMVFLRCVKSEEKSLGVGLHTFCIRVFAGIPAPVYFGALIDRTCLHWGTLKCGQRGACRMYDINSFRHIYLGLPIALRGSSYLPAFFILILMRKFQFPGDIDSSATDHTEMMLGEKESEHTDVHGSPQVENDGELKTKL
test protocol: TP_TRANSPORTER: inhibition of Ouabain uptake (Ouabain: 100 uM, Dexamethasone: 100 uM) in Xenopus laevis oocytes
Type: functional, cell-based, Oocyte
Parameters: scale not given: the % may be the effect or the level left
details: probe Ouabain (100 uM), read-out: Activity
measurement label: activity at 100 µM (%)

[[record]]
structure_notation = "C[C@@H]1C[C@H]2[C@@H]3CCC4=CC(=O)C=C[C@]4(C)[C@@]3(F)[C@@H](O)C[C@]2(C)[C@@]1(O)C(=O)CO"
unit_info = "%"
test_value = 26

